Biological target: HIV-1 protease (Human immunodeficiency virus type 1 group M subtype B, UniProt P04585)
Construct: The protease (or proteinase), consisting of only 99 amino acids, is among the smallest enzymes known
Experiment: In vitro HIV protease inhibitory assay (HIV Protease FITC Assay)
Format: biochemical
Settings: HIV-1 Dose 10.000 uM; read-out: HIV-1 Protease % Inhib

| Compound | inhibition at 10 µM |
| --- | --- |
| O=c1oc(CCc2ccc(Br)cc2)cc(O)c1C(c1ccccc1)C1CC1 (centres unmarked) | 60.4% |
| CCCCC1(Cc2ccccc2)CC(O)=C(C(CC)c2ccccc2)C(=O)O1 (centres unmarked) | 68.4% |
| CCC(C1=C(O)CC2(CCC(O)CC2)OC1=O)c1ccccc1 (centres unmarked) | 62% |
| CC(C)CC(CC(C)C)c1cc(O)c(C(c2ccccc2)C2CC2)c(=O)o1 (centres unmarked) | 78.9% |
| CCC(c1ccccc1)c1c(O)cc(C(Cc2ccccc2)Cc2ccccc2)oc1=O (centres unmarked) | 78.8% |
| CCC(Cc1ccccc1C(F)(F)F)c1cc(O)c(C(c2ccccc2)C2CC2)c(=O)o1 (centres unmarked) | 52% |
| CCC(Cc1ccccc1)c1cc(O)c(C(c2cccc(NC(=O)c3ccc(C#N)cc3)c2)C2CC2)c(=O)o1 (centres unmarked) | 89.8% |
| O=c1oc(CCCC2CCCCC2)cc(O)c1C(c1ccccc1)C1CC1 (centres unmarked) | 25% |

---

Target: HIV-1 protease (Human immunodeficiency virus type 1 group M subtype B, UniProt P04585)
Construct: The protease (or proteinase), consisting of only 99 amino acids, is among the smallest enzymes known
Test: In vitro HIV protease inhibitory assay (HIV Protease FITC Assay)
Type: biochemical
Conditions: read-out: HIV-1 FITC Ki
pKi: −log10 of the molar value.
Returns one of TRUE or FALSE; TRUE when pKi is >= 7.

| Compound | Class Assignment |
| --- | --- |
| CCS(=O)(=O)Nc1cccc(C(c2c(O)cc(C(CC3CC3)CC3CCCOC3)oc2=O)C2CC2)c1 (centres unmarked) | TRUE |
| CCC(CC1CCOC1)c1cc(O)c(C(c2ccccc2)C2CC2)c(=O)o1 (centres unmarked) | TRUE |
| CC(C)(C)c1nc(CCc2cc(O)c(C(c3ccccc3)C3CC3)c(=O)o2)no1 (centres unmarked) | FALSE |
| Cc1noc(C)c1CCc1cc(O)c(C(c2ccccc2)C2CC2)c(=O)o1 (centres unmarked) | FALSE |

---

Overview of recorded inhibition at 1.1 µM for various compounds
Biological target: HIV-1 protease (Human immunodeficiency virus type 1 group M subtype B)
Construct: The protease (or proteinase), consisting of only 99 amino acids, is among the smallest enzymes known
Experiment: In vitro HIV protease inhibitory assay (HIV Protease FITC Assay)
Assay type: biochemical
Details: HIV-1 Dose 1.100 uM; read-out: HIV-1 Protease % Inhib
Protocol: The HIV protease screening assay is based on a fluorescently labeled substrate which can be resolved from nonlabeled cleavage product using avidin-polystyrene particles, 0.7-0.9 µm. […] The labeled cleavage product is separated from the unreacted substrate via filtration and is read on the Idexx Screen Machine. The data are analyzed by appropriate computer algorithms to ascertain percent inhibition values.
Measured Parameter: inhibition at 1.1 µM (%)

| Compound | Measured Parameter | Cmp | Observed Result |
| --- | --- | --- | --- |
| CCCS(=O)(=O)Nc1cccc(C(c2c(O)cc(C(CC)Cc3ccccc3)oc2=O)C2CC2)c1 (centres unmarked) | inhibition at 1.1 µM | = | 77.9 |
| C=CC(C1=C(O)CC(CCC)(CCc2ccccc2)OC1=O)c1ccccc1 (centres unmarked) | inhibition at 1.1 µM | = | 81.8 |
| CCC(C1=C(O)CC2(CCC(=O)CC2)OC1=NO)c1ccccc1 (centres unmarked) | inhibition at 1.1 µM | < | 10 |
| CC(C)C(Cc1ccccc1)c1cc(O)c(C(c2ccccc2)C2CC2)c(=O)o1 (centres unmarked) | inhibition at 1.1 µM | = | 74.3 |
| CCCC1(CCCc2ccccc2)CC(O)=C(C(c2ccc(COCOC)s2)C2CC2)C(=O)O1 (centres unmarked) | inhibition at 1.1 µM | = | 32.8 |
| CCCCC1(Cc2ccccc2)CC(O)=C(C(CCc2ccccc2)c2ccccc2)C(=O)O1 (centres unmarked) | inhibition at 1.1 µM | = | 21.2 |
| CCC(Cc1ccccc1)c1cc(O)c(C(c2cccc(NC(=O)Nc3ccc(Br)cc3)c2)C2CC2)c(=O)o1 (centres unmarked) | inhibition at 1.1 µM | < | 10 |
| CCCCC1(Cc2ccccc2)CC(O)=C(C(CC)c2ccccc2)C(=O)O1 (centres unmarked) | inhibition at 1.1 µM | = | 21.3 |

---

// reported inhibition at 0.123 µM for each item listed
Molecular target: HIV-1 protease (Human immunodeficiency virus type 1 group M subtype B, UniProt P04585)
Construct: The protease (or proteinase), consisting of only 99 amino acids, is among the smallest enzymes known
Assay: In vitro HIV protease inhibitory assay (HIV Protease FITC Assay)
Assay type: biochemical
Conditions: HIV-1 Dose 0.123 uM; read-out: HIV-1 Protease % Inhib
Measured Parameter: inhibition at 0.123 µM

| Compound | Observed Result |
| --- | --- |
| CCC(Cc1ccccc1)c1cc(O)c(C(c2cccc(NC(=O)CC[C@H](NC(=O)OCc3ccccc3)C(=O)OCc3ccccc3)c2)C2CC2)c(=O)o1 (some centres unmarked) [Example 225] | < 10% |
| CCC(C1=C(O)CC2(CCC(O)CC2)OC1=O)c1ccccc1 (centres unmarked) [Example 116] | < 10% |
| CCC(Cc1ccccc1Cl)c1cc(O)c(C(c2ccccc2)C2CC2)c(=O)o1 (centres unmarked) [Example 157] | < 10% |
| CCC(Cc1ccncc1)c1cc(O)c(C(c2ccccc2)C2CC2)c(=O)o1 (centres unmarked) [Example 68] | < 10% |
| O=c1oc(CC2CCCC2)cc(O)c1C(c1ccccc1)C1CC1 (centres unmarked) [Example 143] | < 10% |
| CC(C)CC1(CCc2ccccc2)CC(O)=C(C(/C=C/c2ccccc2)c2ccccc2)C(=O)O1 (centres unmarked) [Example 210] | < 10% |
| CCC(Cc1ccc(F)cc1)c1cc(O)c(C(c2ccccc2)C2CC2)c(=O)o1 (centres unmarked) [Example 154] | 21.9% |
| O=c1oc(CC(O)c2ccc(Cl)cc2)cc(O)c1C(c1ccccc1)C1CC1 (centres unmarked) [Example 149] | < 10% |

---

Target: HIV-1 protease (Human immunodeficiency virus type 1 group M subtype B, UniProt P04585)
Construct: The protease (or proteinase), consisting of only 99 amino acids, is among the smallest enzymes known
Experiment: In vitro HIV protease inhibitory assay (HIV Protease FITC Assay)
Assay type: biochemical
Conditions: HIV-1 Dose 0.370 uM; read-out: HIV-1 Protease % Inhib
Procedure: The HIV protease screening assay is based on a fluorescently labeled substrate which can be resolved from nonlabeled cleavage product using avidin-polystyrene particles, 0.7-0.9 µm. […] The labeled cleavage product is separated from the unreacted substrate via filtration and is read on the Idexx Screen Machine. The data are analyzed by appropriate computer algorithms to ascertain percent inhibition values.

| Molecule | inhibition at 0.37 µM |
| --- | --- |
| CCC(C1=C(O)CC(CCc2ccccc2)(CC(C)C)OC1=O)c1ccccc1 (stereo not shown) | 33.4% |
| CCC(Cc1cccnc1)c1cc(O)c(C(c2ccccc2)C2CC2)c(=O)o1 (stereo not shown) | 38.3% |
| CCC(Cc1cccc(Cl)c1)c1cc(O)c(C(c2ccccc2)C2CC2)c(=O)o1 (stereo not shown) | 24.2% |
| O=C1OC(CCc2ccccc2)(CCc2ccccc2)CC(O)=C1C(CCc1ccccc1)c1ccccc1 (stereo not shown) | 10.2% |

---

Parameter: pKi. Scope: all listed entries.
Target: HIV-1 protease (Human immunodeficiency virus type 1 group M subtype B, UniProt P04585)
Construct: The protease (or proteinase), consisting of only 99 amino acids, is among the smallest enzymes known
Test: In vitro HIV protease inhibitory assay (HIV Protease FITC Assay)
Type: biochemical
Conditions: read-out: HIV-1 FITC Ki
pKi: −log10 of the molar value.
Measured Parameter: pKi

| Compound | Observed Result |
| --- | --- |
| CCCC1(CCCc2ccccc2)CC(O)=C(C(CCc2ccccc2)c2ccccc2)C(=O)O1 (stereo not shown) | 7.00 |
| COCCOCCOCCCc1cc(O)c(C(c2ccccc2)C2CC2)c(=O)o1 (stereo not shown) | 6.22 |
| CCC(C1=C(O)CC2(CCC(=O)CC2)OC1=O)c1ccccc1 (stereo not shown) | 5.94 |
| CCCC1(CCc2ccccc2)CC(O)=C(C(/C=C/c2ccccc2)c2ccccc2)C(=O)O1 (stereo not shown) | 7.30 |
| CCC(c1ccccc1)c1cc(O)c(C(CC)c2ccccc2)c(=O)o1 (stereo not shown) | 7.65 |
| CCC(C1=C(O)CC2(CCC3(CC2)OCCO3)OC1=O)c1ccccc1 (stereo not shown) | 5.37 |
| CCC(CC1CCOCC1)c1cc(O)c(C(c2ccccc2)C2CC2)c(=O)o1 (stereo not shown) | 7.32 |
| O=c1oc(C(Cc2ccccc2)Cc2ccccn2)cc(O)c1C(c1ccccc1)C1CC1 (stereo not shown) | 6.50 |
| CCC(Cc1ccccc1)c1cc(O)c(C(c2cccc(NS(=O)(=O)c3ccc(C)cc3)c2)C2CC2)c(=O)o1 (stereo not shown) | 7.67 |
| COCCOCCCc1cc(O)c(C(c2ccccc2)C2CC2)c(=O)o1 (stereo not shown) | 5.82 |
| C=CCC(CC=C)c1cc(O)c(C(c2ccccc2)C2CC2)c(=O)o1 (stereo not shown) | 7.00 |
| CCCC(CCC)c1cc(O)c(C(c2ccccc2)C2CC2)c(=O)o1 (stereo not shown) | 7.39 |
| CCC(CC1CCCOC1)c1cc(O)c(C(c2ccccc2)C2CC2)c(=O)o1 (stereo not shown) | 7.89 |
| CCC(CC1CCCCO1)c1cc(O)c(C(c2ccccc2)C2CC2)c(=O)o1 (stereo not shown) | 7.13 |
| CCC(CCC1OCCCO1)c1cc(O)c(C(c2ccccc2)C2CC2)c(=O)o1 (stereo not shown) | 6.85 |
| CCCc1oc(=O)c(C(CC)c2ccccc2)c(O)c1Br (stereo not shown) | 6.69 |
| O=c1oc(C(CC2CC2)CC2CC2)cc(O)c1C(c1ccccc1)C1CC1 (stereo not shown) | 7.51 |
| Cc1nc(CCc2cc(O)c(C(c3ccccc3)C3CC3)c(=O)o2)cs1 (stereo not shown) | 6.45 |
| CC(C)C(CC1CCCOC1)c1cc(O)c(C(c2ccccc2)C2CC2)c(=O)o1 (stereo not shown) | 7.62 |
| CCC(c1ccccc1)c1c(O)c(Br)c(C(CC2CC2)CC2CC2)oc1=O (stereo not shown) | 7.12 |
| CCC(Cc1ccccc1)c1cc(O)c(C(c2cccc(NC(=O)NS(=O)(=O)c3ccccc3)c2)C2CC2)c(=O)o1 (stereo not shown) | 6.91 |
| CCC(Cc1ccccc1)c1cc(O)c(C(c2cccc(NC(=O)Cc3cccnc3)c2)C2CC2)c(=O)o1 (stereo not shown) | 7.21 |
| CCC(CC1COc2ccccc2O1)c1cc(O)c(C(c2ccccc2)C2CC2)c(=O)o1 (stereo not shown) | 6.73 |
| CCC(CCc1ccsc1)c1cc(O)c(C(c2ccccc2)C2CC2)c(=O)o1 (stereo not shown) | 7.27 |
| COCOCc1ccc(C(C2=C(O)CC(CCc3ccccc3)(CC(C)C)OC2=O)C2CC2)s1 (stereo not shown) | 7.12 |
| Cc1ccc(S(=O)(=O)Nc2cccc(C(c3c(O)cc(C(CC4CC4)CC4CCCOC4)oc3=O)C3CC3)c2)cc1 (stereo not shown) | 7.69 |
| O=c1oc(CCCCl)cc(O)c1C(c1ccccc1)C1CC1 (stereo not shown) | 6.66 |
| CCC(Cc1ccccc1)c1cc(O)c(C(c2cccc(NS(=O)(=O)c3ccccc3)c2)C2CC2)c(=O)o1 (stereo not shown) | 7.76 |
| CCC(Cc1ccccc1)c1cc(O)c(C(c2cccc(NC(=O)Cc3ccccn3)c2)C2CC2)c(=O)o1 (stereo not shown) | 7.28 |
| CCC(Cc1cccc(OC)c1)c1cc(O)c(C(c2ccccc2)C2CC2)c(=O)o1 (stereo not shown) | 6.73 |
| CC(C)C(Cc1ccccc1)c1cc(O)c(C(c2ccccc2)C2CC2)c(=O)o1 (stereo not shown) | 7.40 |
| C=CC(C1=C(O)CC(CCC)(CCc2ccccc2)OC1=O)c1ccccc1 (stereo not shown) | 7.80 |
| CCC(CCOCCOC)c1cc(O)c(C(c2ccccc2)C2CC2)c(=O)o1 (stereo not shown) | 7.24 |
| O=c1oc(CC(O)c2ccc(Cl)cc2)cc(O)c1C(c1ccccc1)C1CC1 (stereo not shown) | 6.57 |
